- system: GAVE17 (Homo sapiens)
- Sequence (Q9BPV8 22-354): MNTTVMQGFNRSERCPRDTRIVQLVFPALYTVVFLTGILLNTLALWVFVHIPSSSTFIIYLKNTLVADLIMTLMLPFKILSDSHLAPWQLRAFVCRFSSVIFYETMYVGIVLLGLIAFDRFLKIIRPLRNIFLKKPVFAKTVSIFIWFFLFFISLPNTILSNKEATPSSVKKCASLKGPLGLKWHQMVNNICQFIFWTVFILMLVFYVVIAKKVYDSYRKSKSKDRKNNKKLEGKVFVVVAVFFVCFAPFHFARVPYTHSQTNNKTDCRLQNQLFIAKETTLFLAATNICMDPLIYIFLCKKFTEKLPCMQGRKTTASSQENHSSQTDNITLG
- measurement_protocol: Nucleotide ligand activation of and affinity for GAVE17 in transformed NIH 3T3 cells
- Format: cell-based
- Parameters: expressed in transfected cells; host or cells: NIH 3T3
- test_context: transformed NIH 3T3 cells
measured_property: pKd
# log scale: pKd equals minus log10 of the concentration in mol/L

Req: Quick one: pKd of Nc1nc2c(ncn2[C@@H]2O[C@H](COP(=O)(O)OP(=O)(O)O)[C@@H](O)[C@H]2O)c(=O)[nH]1 [GDP] ?
Resp: 4.19

Req: Quick one: pKd of Nc1ncnc2c1ncn2[C@@H]1O[C@H](COP(=O)(O)OP(=O)(O)OP(=O)(O)O)[C@@H](O)[C@H]1O [ATP] ?
Resp: 6.10

Req: Quick one: pKd of O=c1ccn([C@@H]2O[C@H](COP(=O)(O)OP(=O)(O)OP(=O)(O)O)[C@@H](O)[C@H]2O)c(=O)[nH]1 [UTP] ?
Resp: 5.16

Req: Quick one: pKd of O=c1ccn([C@@H]2O[C@H](COP(=O)(O)OP(=O)(O)O)[C@@H](O)[C@H]2O)c(=O)[nH]1 [UDP] ?
Resp: 5.00

Req: Quick one: pKd of Nc1ncnc2c1ncn2[C@@H]1O[C@H](COP(=O)(O)OP(=O)(O)O)[C@@H](O)[C@H]1O [ADP] ?
Resp: 4.59
